FYI, the data here is from patent US12404241B2.

// reported DC50 for each item listed
- System: AR (Homo sapiens, UniProt P10275)
- Construct: endogenous in cells; host or cells: VCaP cells
- Experimental Protocol: VCAP AR Degradation Assay
- Type: cell-based
- Run Parameters: class symbols A-C, read-out: DC50

Worked set:
1) C[C@@H]1CN(CC(=O)Nc2cccc(NC3CCC(=O)NC3=O)c2)[C@H](C)CN1CCOc1ccc(N2C(=S)N(c3cnc(C#N)c(C(F)(F)F)c3)C(=O)C2(C)C)cc1C(C)(F)F (stereo partly shown): < 100 nM
2) CC(C)c1cc(N2C(=S)N(c3ccc(C#N)c(Cl)c3)C(=O)C2(C)C)ccc1OCCN1C[C@@H](C)N(CC(=O)Nc2cc(Cl)cc(NC3CCC(=O)NC3=O)c2)[C@@H](C)C1 (stereo partly shown): 100 to 500 nM
3) CC(C)c1cc(N2C(=S)N(c3ccc(C#N)c(C(F)(F)F)c3)C(=O)C2(C)C)ccc1OCCN1C[C@@H](C)N(CC(=O)Nc2cc(F)cc(NC3CCC(=O)NC3=O)c2)[C@@H](C)C1 (stereo partly shown): < 100 nM
4) CC(C)c1cc(N2C(=S)N(c3cnc(C#N)c(C(F)(F)F)c3)C(=O)C23CCC3)ccc1OCCN1C[C@@H](C)N(CC(=O)Nc2cc(F)cc(NC3CCC(=O)NC3=O)c2)[C@@H](C)C1 (stereo partly shown): < 100 nM
5) C[C@@H]1CN(CCOc2ccc(N3C(=S)N(c4cnc(C#N)c(C(F)(F)F)c4)C(=O)C34CCC4)cc2C2CC2)C[C@H](C)N1CC(=O)Nc1cc(Cl)cc(NC2CCC(=O)NC2=O)c1 (stereo partly shown): < 100 nM

Q: Identify the measured DC50 of CC(C)Cc1cc(N2C(=S)N(c3ccc(C#N)c(C(F)(F)F)c3)C(=O)C2(C)C)ccc1OCCN1CCN(CC(=O)Nc2cccc(NC3CCC(=O)NC3=O)c2)CC1 (stereo not shown) for AR (Homo sapiens, UniProt P10275).
Ans: < 100 nM

Q: Entry to check: CCc1cc(N2C(=S)N(c3ccc(C#N)c(C(F)(F)F)c3)C(=O)C2(C)C)ccc1OC[C@@H](C)N1C[C@@H](C)N(CC(=O)Nc2cccc(NC3CCC(=O)NC3=O)c2)[C@@H](C)C1 (single isomer, unassigned)
Ans: 100 to 500 nM

* * *

- System: AR (Homo sapiens)
- Construct: endogenous in cells; host or cells: VCaP cells
- Experimental Protocol: VCAP AR Degradation Assay
- Assay type: cell-based
- Run Parameters: class symbols A-C, read-out: DC50
DC50 values for the compounds below.

1. CC[C@@H]1CN(CCOc2ccc(N3C(=S)N(c4cnc(C#N)c(C(F)(F)F)c4)C(=O)C34CCC4)cc2C2CC2)CCN1CC(=O)Nc1cccc(NC2CCC(=O)NC2=O)c1 (stereo partly drawn) [Example 262]: 100 to 500 nM
2. CC(F)(F)c1cc(N2C(=S)N(c3cnc(C#N)c(C(F)(F)F)c3)C(=O)C2(C)C)ccc1OCCN1CCN(CC(=O)Nc2cc(F)cc(NC3CCC(=O)NC3=O)c2)CC1 (stereo not drawn) [Example 80]: < 100 nM

Now look at this entry.
Q: Consider the compound CCc1cc(N2C(=S)N(c3ccc(C#N)c(C(F)(F)F)c3)C(=O)C2(C)C)ccc1OC[C@H](C)N1C[C@@H](C)N(CC(=O)Nc2cccc(NC3CCC(=O)NC3=O)c2)[C@@H](C)C1 (single isomer, unassigned) [Example 236] and give its measured DC50.
Ans: 100 to 500 nM

* * *

- System: AR (Homo sapiens)
- Construct: endogenous in cells; host or cells: VCaP cells
- Experimental Protocol: VCAP AR Degradation Assay
- Assay type: cell-based
- Run Parameters: class symbols *, **
Where a name gives a salt, the structure may show the parent alone.
Observation Type: Y (AR degradation efficiency, % of DMSO control)

Study these solved cases before continuing.
1. CCc1cc(N2C(=S)N(c3ccc(C#N)c(C(F)(F)F)c3)C(=O)C2(C)C)ccc1OCCN1CC2CCC(C1)N2CC(=O)Nc1cccc(NC2CCC(=O)NC2=O)c1 (stereo not shown): * (0<Y<=25%)
2. C[C@@H]1CN(CCOc2ccc(N3C(=S)N(c4ccc(C#N)c(C(F)(F)F)c4)C(=O)C3(C)C)cc2CCF)CCN1CC(=O)Nc1cccc(NC2CCC(=O)NC2=O)c1 (stereo partly shown): * (0<Y<=25%)
3. C[C@@H]1CN(CCOc2ccc(N3C(=S)N(c4cnc(C#N)c(C(F)(F)F)c4)C(=O)C3(C)C)cc2C(C)(F)F)C[C@H](C)N1CC(=O)Nc1cccc(NC2CCC(=O)NC2=O)c1 (stereo partly shown): * (0<Y<=25%)
4. C[C@@H]1CN(CCOc2ccc(N3C(=S)N(c4cnc(C#N)c(C(F)(F)F)c4)C(=O)C34CCC4)cc2CCF)CCN1CC(=O)Nc1cc(Cl)cc(NC2CCC(=O)NC2=O)c1 (stereo partly shown): * (0<Y<=25%)
5. CCc1cc(N2C(=S)N(c3cnc(C#N)c(C(F)(F)F)c3)C(=O)C23CCC3)ccc1OCCN1CCN(CC(=O)Nc2cc(Cl)cc(NC3CCC(=O)NC3=O)c2)CC1 (stereo not shown): * (0<Y<=25%)
6. CC(C)c1cc(N2C(=S)N(c3ccc(C#N)c(C(F)(F)F)c3)C(=O)C2(C)C)ccc1OCCN1C[C@@H](C)N(CC(=O)Nc2cccc(NC3CCC(=O)NC3=O)c2)[C@@H](C)C1 (stereo partly shown): * (0<Y<=25%)
7. CCc1cc(N2C(=S)N(c3cnc(C#N)c(C(F)(F)F)c3)C(=O)C2(C)C)ccc1OCCN1CCN(CC(=O)Nc2cc(F)cc(NC3CCC(=O)NC3=O)c2)[C@H](C)C1 (stereo partly shown): * (0<Y<=25%)
8. CCc1cc(N2C(=S)N(c3ccc(C#N)c(C(F)(F)F)c3)C(=O)C23CCC3)ccc1OCCN1CCN(CC(=O)Nc2cccc(NC3CCC(=O)NC3=O)c2)[C@H](C)C1 (stereo partly shown): * (0<Y<=25%)

Q: Name the recorded Y (AR degradation efficiency, % of DMSO control) for CC[C@@H]1CN(CCOc2ccc(N3C(=S)N(c4cnc(C#N)c(C(F)(F)F)c4)C(=O)C34CCC4)cc2C2CC2)CCN1CC(=O)Nc1cccc(NC2CCC(=O)NC2=O)c1 (stereo partly shown) .
Ans: * (0<Y<=25%)

Q: Please give the result for CC1(C)C(=O)N(c2ccc(C#N)c(C(F)(F)F)c2)C(=S)N1c1ccc(OCCN2CCN(CC(=O)Nc3cccc(NC4CCC(=O)NC4=O)c3)CC2)c(C2CC2)c1 (stereo not shown) [Example 9, hydrochloride] too.
Ans: * (0<Y<=25%)

* * *

In this section we review reported DC50 values for a set of compounds.
- System: AR (Homo sapiens)
- Construct: endogenous in cells; host or cells: VCaP cells
- Experimental Protocol: VCAP AR Degradation Assay
- Format: cell-based
- Run Parameters: class symbols A-C, read-out: DC50

1. CCc1cc(N2C(=S)N(c3cnc(C#N)c(C(F)(F)F)c3)C(=O)C2(C)C)ccc1OCCN1CCN([C@@H](C)C(=O)Nc2cc(Cl)cc(NC3CCC(=O)NC3=O)c2)CC1 (single isomer, unassigned): < 100 nM
2. CC(C)c1cc(N2C(=S)N(c3ccc(C#N)c(Cl)c3)C(=O)C2(C)C)ccc1OCCN1C[C@@H](C)N(CC(=O)Nc2cc(NC3CCC(=O)NC3=O)ccc2F)[C@@H](C)C1 (some centres unmarked): 100 to 500 nM
3. C[C@@H]1CN(CCOc2ccc(N3C(=S)N(c4cnc(C#N)c(C(F)(F)F)c4)C(=O)C34CCC4)cc2C2CC2)C[C@H](C)N1CC(=O)Nc1cc(NC2CCC(=O)NC2=O)ccc1F (some centres unmarked): < 100 nM
4. CCc1cc(N2C(=S)N(c3ccc(C#N)c(C(F)(F)F)c3)C(=O)C2(C)C)ccc1OCCN1C[C@H](C)N(CC(=O)Nc2cccc(NC3CCC(=O)NC3=O)c2)C[C@@H]1C (some centres unmarked): 100 to 500 nM

Let's switch to this compound now.
Q: Give recorded DC50 with AR (Homo sapiens) for the following compound: CC(C)c1cc(N2C(=S)N(c3ccc(C#N)c(C(F)(F)F)c3)C(=O)C2(C)C)ccc1OCCN1C[C@@H](C)N(CC(=O)Nc2cc(Cl)cc(NC3CCC(=O)NC3=O)c2)[C@@H](C)C1 (some centres unmarked)
Ans: 100 to 500 nM

* * *

- System: AR (Homo sapiens)
- Construct: endogenous in cells; host or cells: VCaP cells
- Sequence (P10275 1-920): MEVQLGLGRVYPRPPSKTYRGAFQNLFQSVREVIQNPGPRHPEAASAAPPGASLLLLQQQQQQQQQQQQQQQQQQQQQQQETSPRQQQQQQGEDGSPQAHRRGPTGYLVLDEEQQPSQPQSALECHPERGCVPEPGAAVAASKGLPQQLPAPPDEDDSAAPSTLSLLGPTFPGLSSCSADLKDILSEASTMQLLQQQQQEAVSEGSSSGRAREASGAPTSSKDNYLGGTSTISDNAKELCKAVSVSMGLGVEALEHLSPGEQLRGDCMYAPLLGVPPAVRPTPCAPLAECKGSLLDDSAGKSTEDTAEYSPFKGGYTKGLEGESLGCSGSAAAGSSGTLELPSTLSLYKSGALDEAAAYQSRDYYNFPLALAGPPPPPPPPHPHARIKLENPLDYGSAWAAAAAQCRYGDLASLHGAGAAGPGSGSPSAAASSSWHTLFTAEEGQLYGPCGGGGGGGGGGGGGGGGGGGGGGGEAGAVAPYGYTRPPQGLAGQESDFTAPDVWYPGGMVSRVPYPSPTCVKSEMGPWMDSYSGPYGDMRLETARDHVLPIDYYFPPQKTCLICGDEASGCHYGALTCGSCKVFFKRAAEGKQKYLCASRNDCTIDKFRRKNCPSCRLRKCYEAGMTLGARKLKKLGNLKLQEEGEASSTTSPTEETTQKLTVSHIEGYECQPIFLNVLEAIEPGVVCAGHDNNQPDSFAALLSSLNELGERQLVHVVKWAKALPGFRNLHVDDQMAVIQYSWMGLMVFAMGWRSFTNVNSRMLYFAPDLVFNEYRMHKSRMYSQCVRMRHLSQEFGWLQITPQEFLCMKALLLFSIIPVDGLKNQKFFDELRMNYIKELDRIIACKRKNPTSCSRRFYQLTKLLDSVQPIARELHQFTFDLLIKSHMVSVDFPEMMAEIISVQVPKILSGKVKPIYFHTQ
- Experimental Protocol: VCAP AR Degradation Assay
- Format: cell-based
- Run Parameters: class symbols *, **
Counter-ions that a name gives are not always drawn.
Observation Type: Y (AR degradation efficiency, % of DMSO control)

As a guide, the following entries are already answered.
1) CCc1cc(N2C(=S)N(c3cnc(C#N)c(C(F)(F)F)c3)C(=O)C2(C)C)ccc1OCCN1CCN(CC(=O)Nc2cc(Cl)cc(NC3CCC(=O)NC3=O)c2)[C@H](C)C1 (stereo partly shown) [Example 145]: * (0<Y<=25%)
2) C[C@@H]1CN(CCOc2ccc(N3C(=S)N(c4ccc(C#N)c(Cl)c4)C(=O)C3(C)C)cc2C(C)(F)F)C[C@H](C)N1CC(=O)Nc1cccc(NC2CCC(=O)NC2=O)c1 (stereo partly shown) [Example 269]: * (0<Y<=25%)
3) C[C@@H]1CN(CCOc2ccc(N3C(=S)N(c4ccc(C#N)c(C(F)(F)F)c4)C(=O)C3(C)C)cc2Cl)CCN1CC(=O)Nc1cccc(NC2CCC(=O)NC2=O)c1 (stereo partly shown) [Example 276]: * (0<Y<=25%)
4) CC1(C)C(=O)N(c2ccc(C#N)c(C(F)(F)F)c2)C(=S)N1c1ccc(OCCN2CC3CCC(C2)N3CC(=O)Nc2cccc(NC3CCC(=O)NC3=O)c2)c(C2CC2)c1 (stereo not shown) [Example 238]: * (0<Y<=25%)

Q: Need Y (AR degradation efficiency, % of DMSO control), item CC(C)c1cc(N2C(=S)N(c3ccc(C#N)c(C(F)(F)F)c3)C(=O)C2(C)C)ccc1OCCN1CCN(CC(=O)Nc2cc(Cl)cc(NC3CCC(=O)NC3=O)c2)CC1 (stereo not shown) [Example 94]
Ans: ** (25%<Y<=35%)

Q: Consider next the molecule C[C@@H]1CN(CCOc2ccc(N3C(=S)N(c4ccc(C#N)c(C(F)(F)F)c4)C(=O)C3(C)C)cc2C2CC2)C[C@H](C)N1CC(=O)Nc1cccc(NC2CCC(=O)NC2=O)c1 (stereo partly shown) [Example 204] in the same way.
Ans: * (0<Y<=25%)

Q: Same again, this time with CC(C)c1cc(N2C(=S)N(c3ccc(C#N)c(C(F)(F)F)c3)C(=O)C2(C)C)ccc1OCCN1CCN(CC(=O)Nc2cccc(NC3CCC(=O)NC3=O)c2)[C@H](C)C1 (stereo partly shown) [Example 162]
Ans: ** (25%<Y<=35%)

Q: Next molecule up: CC1(C)C(=O)N(c2cnc(C#N)c(C(F)(F)F)c2)C(=S)N1c1ccc(OCCN2CCN(CC(=O)Nc3cccc(NC4CCC(=O)NC4=O)c3)CC2)c(Cl)c1 (stereo not shown) [Example 5, hydrochloride]
Ans: * (0<Y<=25%)

Q: Request: CCc1cc(N2C(=S)N(c3cnc(C#N)c(C(F)(F)F)c3)C(=O)C2(C)C)ccc1OCCN1CCN([C@@H](C)C(=O)Nc2cccc(NC3CCC(=O)NC3=O)c2)CC1 (stereo partly shown) [Example 118]
Ans: * (0<Y<=25%)
